Recorded IC50, one value per entry.
system: K562; experiment: Antiproliferative activity in human K562 cells after 48 hrs by MTT assay; format: functional, cell-based; settings: K562, 48 h
Counter-ions that a name gives are not always drawn.
Kindly answer with a numeric value in µM, unit omitted.

Previously resolved entries follow.
{"COMPOUND": "c1cc2c(c(OCCN3CCCCC3)c1)-c1ccc(cc1OCCN1CCCCC1)CCc1ccc(OCCN3CCCCC3)c(c1)Oc1ccc(cc1)CC2", "IC50, µM": 0.56}
{"COMPOUND": "COc1cccc2c1C(=O)c1c(O)c3c(c(O)c1C2=O)C[C@@](O)(C(=O)CO)C[C@@H]3O[C@H]1C[C@H](N)[C@H](O)[C@H](C)O1 [DOXORUBICIN HYDROCHLORIDE]", "IC50, µM": 0.61}
{"COMPOUND": "Oc1cc2ccc1-c1c(ccc(CN3CCCC3)c1O)CCc1ccc(cc1)Oc1cc(cc(CN3CCCC3)c1O)CC2", "IC50, µM": 0.8}
{"COMPOUND": "CN(CCO)Cc1cc2cc(c1O)Oc1ccc(cc1)CCc1ccc(CN(C)CCO)c(O)c1-c1ccc(cc1O)CC2", "IC50, µM": 5.67}

Enquiry: Report IC50 for c1cc2c(c(OCCN3CCOCC3)c1)-c1ccc(cc1OCCN1CCOCC1)CCc1ccc(OCCN3CCOCC3)c(c1)Oc1ccc(cc1)CC2 please.
Return: 3.43

Origin of values: ChEMBL document CHEMBL4251549
